B1: Pistol ribozyme (parent)
chain: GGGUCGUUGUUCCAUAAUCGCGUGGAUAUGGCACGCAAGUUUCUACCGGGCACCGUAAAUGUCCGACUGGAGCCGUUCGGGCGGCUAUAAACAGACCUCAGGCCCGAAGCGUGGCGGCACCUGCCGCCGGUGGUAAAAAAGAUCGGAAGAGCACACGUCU

Variants of: B1
Assay: aptazyme ON/OFF ratio, guanine; higher = stronger switching; co-transcriptional cleavage with and without guanine
Reported Metric: aptazyme ON/OFF ratio
Answer field: number only, no words.

Below, 5 variants whose answers are already recorded.
- U7A U8C G9C U10A C13U: 1.06
- U7C U8A G9U U11C C12A C13G: 1.07
- U7G U8A G9C U11C C12G C13A: 1.02
- U7C U8G G9C U10G U11G C13G: 1.1
- U7G U8A G9A U10A U11G C12G C13U: 1.17

Next, consider the following variant.
In: Please give the documented aptazyme ON/OFF ratio of U7A U8G G9U U10G U11A C12U
Out: 1.27
